# pKd of Antibody for ARM Compound of Formula (I) per entry
biological target: Anti-cotinine antibody (SEQ ID NO: 11 / SEQ ID NO: 12, rabbit variable region with human IgG1 Fc domain); assay: Binding of anti-cotinine antibody to ARM compounds by SPR, Biacore T200, 37° C. (Example 202); conditions: pH 7.4, rabbit variable region/human IgG1 Fc antibody captured on protein A
READOUT TYPE: pKd of Antibody for ARM Compound of Formula (I)

STRUCTURE SMILES	NUMBER
CC(C)N(C)[C@@H]1CC[C@H](N2CC[C@H](Nc3ncnc4ccc(C(F)(F)F)cc34)C2=O)[C@H](NC(=O)CCCC(=O)N[C@H]2CC[C@@H](CNC(=O)CCOCCNC(=O)[C@H]3CC(=O)N(C)[C@@H]3c3cccnc3)CC2)C1	9.24
CC(C)N(C)[C@@H]1CC[C@H](N2CC[C@H](Nc3ncnc4ccc(C(F)(F)F)cc34)C2=O)[C@H](NC(=O)CCOCCC(=O)N[C@H]2C[C@H](C(=O)NCCOCCNC(=O)[C@H]3CC(=O)N(C)[C@@H]3c3cccnc3)C2)C1	9.104
